All values here come from the supplement of paper PMC7877785.

This section presents sequences with their documented self-splicing fitness (ln) values.
# TEST: self-splicing fitness, log relative to wild type (ln ratio); higher = more splicing; Tetrahymena group I intron in knt gene, E. coli kanamycin selection, DiMSum; sequences stand for … in CUCUCU…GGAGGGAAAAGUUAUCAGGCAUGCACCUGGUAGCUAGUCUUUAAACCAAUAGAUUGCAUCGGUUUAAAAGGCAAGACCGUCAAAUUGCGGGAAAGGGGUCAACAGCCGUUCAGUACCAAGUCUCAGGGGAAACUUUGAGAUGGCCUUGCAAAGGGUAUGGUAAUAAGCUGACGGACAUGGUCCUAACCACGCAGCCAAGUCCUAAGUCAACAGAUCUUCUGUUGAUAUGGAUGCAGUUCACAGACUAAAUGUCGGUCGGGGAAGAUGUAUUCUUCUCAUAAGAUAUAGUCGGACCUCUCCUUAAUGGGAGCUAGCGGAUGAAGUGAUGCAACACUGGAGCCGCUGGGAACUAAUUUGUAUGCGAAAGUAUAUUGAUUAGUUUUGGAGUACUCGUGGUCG;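 further: selection with 25 µg/mL kanamycin versus none on LB agar overnight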
# RUN_CONDITIONS: 37 °C
READOUT_LABEL: self-splicing fitness (ln)

[[record]]
residue_codes = "UACUAGCAAUAUUACGACGU"
readout_number = -1.29

[[record]]
residue_codes = "UUGAAGCAAUAUUACGAUGU"
readout_number = -0.962

[[record]]
residue_codes = "ACAGAGCAAUAUUACGCCGG"
readout_number = -2.4

[[record]]
residue_codes = "UCAAAGCAAUAUUACGUGAU"
readout_number = -2.64

[[record]]
residue_codes = "GUGAAGCAAUAUUACGCCUC"
readout_number = -1.09

[[record]]
residue_codes = "GAGUAGCAAUAUUACGUACU"
readout_number = -1.67

[[record]]
residue_codes = "GGCCAGCAAUAUUACGAAGU"
readout_number = -1.26

[[record]]
residue_codes = "UUUAAGCAAUAUUACGCGUG"
readout_number = -0.368

[[record]]
residue_codes = "AUACAGCAAUAUUACGACCU"
readout_number = 0.122

[[record]]
residue_codes = "CGAUAGCAAUAUUACGGCGU"
readout_number = 0.51

[[record]]
residue_codes = "GUAUAGCAAUAUUACGACCA"
readout_number = -0.193

[[record]]
residue_codes = "AGUUAGCAAUAUUACGAGGA"
readout_number = -2.43

[[record]]
residue_codes = "AUGAAGCAAUAUUACGUGCU"
readout_number = -1.39

[[record]]
residue_codes = "CUCUAGCAAUAUUACGUGAA"
readout_number = -3.07

[[record]]
residue_codes = "UCAUAGCAAUAUUACGCUGA"
readout_number = -1.85

[[record]]
residue_codes = "CCAGAGCAAUAUUACGGUGU"
readout_number = -2.7

[[record]]
residue_codes = "AAAUAGCAAUAUUACGCAUA"
readout_number = -0.726

[[record]]
residue_codes = "UACAAGCAAUAUUACGAGUA"
readout_number = -0.707

[[record]]
residue_codes = "UGGUAGCAAUAUUACGAGAG"
readout_number = -2.16

[[record]]
residue_codes = "AAAUAGCAAUAUUACGUAGC"
readout_number = -1.9

[[record]]
residue_codes = "AGGAAGCAAUAUUACGGCGC"
readout_number = -0.104

[[record]]
residue_codes = "AUCGAGCAAUAUUACGCUUU"
readout_number = -2.29

[[record]]
residue_codes = "UGGCAGCAAUAUUACGAGUG"
readout_number = 0.196

[[record]]
residue_codes = "GGCUAGCAAUAUUACGAAUA"
readout_number = -1.7

[[record]]
residue_codes = "CUUCAGCAAUAUUACGAUAC"
readout_number = -2.14

[[record]]
residue_codes = "CGCUAGCAAUAUUACGCCGU"
readout_number = -0.719

[[record]]
residue_codes = "UUAGAGCAAUAUUACGCGGA"
readout_number = -0.00507

[[record]]
residue_codes = "AACCAGCAAUAUUACGCGUC"
readout_number = -1.12

[[record]]
residue_codes = "GGUCAGCAAUAUUACGGGAC"
readout_number = -2.96

[[record]]
residue_codes = "AUGUAGCAAUAUUACGCCGA"
readout_number = -0.724

[[record]]
residue_codes = "UGGUAGCAAUAUUACGCGAU"
readout_number = -0.974

[[record]]
residue_codes = "GGGCAGCAAUAUUACGAGCA"
readout_number = -1.37

[[record]]
residue_codes = "UAGUAGCAAUAUUACGGGAA"
readout_number = -1.65

[[record]]
residue_codes = "ACAAAGCAAUAUUACGGACG"
readout_number = -0.124

[[record]]
residue_codes = "CCGUAGCAAUAUUACGAGAG"
readout_number = -2.54

[[record]]
residue_codes = "ACUUAGCAAUAUUACGCGAU"
readout_number = -1.13

[[record]]
residue_codes = "CAGGAGCAAUAUUACGGGAC"
readout_number = -3.24

[[record]]
residue_codes = "AUUGAGCAAUAUUACGUGCU"
readout_number = -3.17

[[record]]
residue_codes = "UAUGAGCAAUAUUACGUUUC"
readout_number = -1.67

[[record]]
residue_codes = "UGCCAGCAAUAUUACGGUCU"
readout_number = 0.456

[[record]]
residue_codes = "UUCAAGCAAUAUUACGCUUG"
readout_number = -1.01

[[record]]
residue_codes = "UCGCAGCAAUAUUACGUACU"
readout_number = -1.86

[[record]]
residue_codes = "UUGUAGCAAUAUUACGGACU"
readout_number = -0.723

[[record]]
residue_codes = "GUACAGCAAUAUUACGGAUA"
readout_number = -2.36

[[record]]
residue_codes = "CGGCAGCAAUAUUACGGUCU"
readout_number = 0.364

[[record]]
residue_codes = "GCGGAGCAAUAUUACGGGAA"
readout_number = -2.23

[[record]]
residue_codes = "CGAAAGCAAUAUUACGAAUU"
readout_number = -1.55

[[record]]
residue_codes = "AGUAAGCAAUAUUACGUAUU"
readout_number = -3.05

[[record]]
residue_codes = "AGGCAGCAAUAUUACGUUUU"
readout_number = -0.435

[[record]]
residue_codes = "AACCAGCAAUAUUACGACAG"
readout_number = -0.775

[[record]]
residue_codes = "GGCGAGCAAUAUUACGGAGG"
readout_number = -1.9

[[record]]
residue_codes = "CGUUAGCAAUAUUACGAGUG"
readout_number = 0.184

[[record]]
residue_codes = "UACGAGCAAUAUUACGUGGA"
readout_number = -1.98

[[record]]
residue_codes = "GCGGAGCAAUAUUACGGGCA"
readout_number = -1.1

[[record]]
residue_codes = "GCUCAGCAAUAUUACGAAGG"
readout_number = -0.29

[[record]]
residue_codes = "GCUUAGCAAUAUUACGACCU"
readout_number = 0.203

[[record]]
residue_codes = "GUGAAGCAAUAUUACGCUAC"
readout_number = -1.95

[[record]]
residue_codes = "AUUGAGCAAUAUUACGUAAU"
readout_number = -0.364

[[record]]
residue_codes = "ACAUAGCAAUAUUACGACUU"
readout_number = -0.163

[[record]]
residue_codes = "AGCCAGCAAUAUUACGUUCC"
readout_number = -2.04

[[record]]
residue_codes = "GCUAAGCAAUAUUACGUUUG"
readout_number = -0.954

[[record]]
residue_codes = "CUUCAGCAAUAUUACGGGGC"
readout_number = -2.21

[[record]]
residue_codes = "GGAAAGCAAUAUUACGAGAA"
readout_number = -1.29

[[record]]
residue_codes = "UAACAGCAAUAUUACGCGGU"
readout_number = -3.29

[[record]]
residue_codes = "CUCUAGCAAUAUUACGGAGU"
readout_number = -2.61

[[record]]
residue_codes = "CGGAAGCAAUAUUACGUUCA"
readout_number = 0.673

[[record]]
residue_codes = "AUACAGCAAUAUUACGGCUC"
readout_number = 0.157


====

This section presents sequences with their documented self-splicing fitness (ln) values.
# TEST: self-splicing fitness, log relative to wild type (ln ratio); higher = more splicing; Tetrahymena group I intron in knt gene, E. coli kanamycin selection, DiMSum; sequences stand for … in CUCUCU…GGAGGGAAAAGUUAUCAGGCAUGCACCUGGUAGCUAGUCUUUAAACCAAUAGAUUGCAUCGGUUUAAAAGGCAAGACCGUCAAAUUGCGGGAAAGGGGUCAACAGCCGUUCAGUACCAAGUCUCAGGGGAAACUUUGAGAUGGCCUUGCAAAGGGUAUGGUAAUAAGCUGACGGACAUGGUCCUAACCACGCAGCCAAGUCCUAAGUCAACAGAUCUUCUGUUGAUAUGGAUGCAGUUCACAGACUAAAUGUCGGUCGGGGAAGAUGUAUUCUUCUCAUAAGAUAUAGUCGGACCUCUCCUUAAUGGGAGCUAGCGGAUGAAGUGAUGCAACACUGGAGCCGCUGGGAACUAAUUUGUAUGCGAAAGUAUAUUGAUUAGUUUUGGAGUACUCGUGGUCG
# RUN_CONDITIONS: 30 °C
READOUT_LABEL: self-splicing fitness (ln)

[[record]]
residue_codes = "UGAAAGCAAUAUUACGGAAA"
result = -1.83

[[record]]
residue_codes = "GCCCAGCAAUAUUACGACAC"
result = -1.64

[[record]]
residue_codes = "CCCCAGCAAUAUUACGCGAG"
result = -3.18

[[record]]
residue_codes = "AUCCAGCAAUAUUACGGUUG"
result = -2.95

[[record]]
residue_codes = "UAUUAGCAAUAUUACGUCUU"
result = -1.86

[[record]]
residue_codes = "AAAUAGCAAUAUUACGUGUU"
result = -1.72

[[record]]
residue_codes = "CAAUAGCAAUAUUACGUCUG"
result = -0.324

[[record]]
residue_codes = "UGAAAGCAAUAUUACGACUA"
result = -0.403

[[record]]
residue_codes = "UUUGAGCAAUAUUACGUAGC"
result = -1.83

[[record]]
residue_codes = "GUGUAGCAAUAUUACGGCGC"
result = -2.06

[[record]]
residue_codes = "CCAUAGCAAUAUUACGAACC"
result = -1.85

[[record]]
residue_codes = "AGACAGCAAUAUUACGCCGU"
result = -3.43

[[record]]
residue_codes = "AAUGAGCAAUAUUACGACCG"
result = -3.45

[[record]]
residue_codes = "UUCGAGCAAUAUUACGUCUA"
result = -1.29

[[record]]
residue_codes = "AAAAAGCAAUAUUACGAGCU"
result = -0.615

[[record]]
residue_codes = "AAUUAGCAAUAUUACGUGGC"
result = -3.39

[[record]]
residue_codes = "UUUCAGCAAUAUUACGCUGG"
result = -3.94

[[record]]
residue_codes = "UCUAAGCAAUAUUACGGACA"
result = -2.39

[[record]]
residue_codes = "UAUUAGCAAUAUUACGGAAG"
result = -2.63

[[record]]
residue_codes = "GUCCAGCAAUAUUACGUUAC"
result = -1.55

[[record]]
residue_codes = "CAGGAGCAAUAUUACGCAGA"
result = -2.76

[[record]]
residue_codes = "AGUCAGCAAUAUUACGAAUG"
result = -1.62

[[record]]
residue_codes = "CUGAAGCAAUAUUACGCCGA"
result = -1.44

[[record]]
residue_codes = "UUCCAGCAAUAUUACGCAUA"
result = -0.568

[[record]]
residue_codes = "GCGUAGCAAUAUUACGUUUC"
result = -4.29

[[record]]
residue_codes = "UGGCAGCAAUAUUACGUACU"
result = 0.384

[[record]]
residue_codes = "UUUGAGCAAUAUUACGCUGU"
result = -3.01

[[record]]
residue_codes = "GCAAAGCAAUAUUACGGAAC"
result = -1.63

[[record]]
residue_codes = "CGUAAGCAAUAUUACGCGUA"
result = -3

[[record]]
residue_codes = "GAGUAGCAAUAUUACGUCUA"
result = -0.203

[[record]]
residue_codes = "GUUAAGCAAUAUUACGGCCG"
result = -1.61

[[record]]
residue_codes = "GACCAGCAAUAUUACGCGUA"
result = -0.76

[[record]]
residue_codes = "CAUAAGCAAUAUUACGUAUG"
result = -3.87

[[record]]
residue_codes = "ACCGAGCAAUAUUACGUUAA"
result = -3

